The following compounds are shown together with reported IC50 values.
target of assay: whole virus influenza neuraminidase, influenza A strain NWS/Tokyo (Influenza A virus, UniProt P06820)
Sequence (P06820 whole entry, looked up): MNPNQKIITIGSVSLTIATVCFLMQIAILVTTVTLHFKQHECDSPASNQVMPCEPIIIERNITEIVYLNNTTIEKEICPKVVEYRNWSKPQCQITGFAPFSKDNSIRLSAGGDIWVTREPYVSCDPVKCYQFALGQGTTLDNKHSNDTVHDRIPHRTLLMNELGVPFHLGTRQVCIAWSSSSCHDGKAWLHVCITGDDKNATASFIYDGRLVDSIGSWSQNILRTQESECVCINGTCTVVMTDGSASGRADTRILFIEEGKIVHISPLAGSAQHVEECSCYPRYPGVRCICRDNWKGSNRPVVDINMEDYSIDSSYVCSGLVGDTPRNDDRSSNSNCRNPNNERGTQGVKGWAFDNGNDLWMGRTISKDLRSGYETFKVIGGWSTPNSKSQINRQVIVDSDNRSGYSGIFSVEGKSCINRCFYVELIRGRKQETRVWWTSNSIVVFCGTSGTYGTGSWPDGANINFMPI
test summary: biochemical

{"columns": ["smiles input", "IC50 [nM]"],
 "data": [
  ["CC(=O)N[C@H]1[C@H]([C@H](OC(=O)NCCCCCCNC(=O)CCCC[C@@H]2SC[C@@H]3NC(=O)N[C@@H]32)[C@H](O)CO)OC(C(=O)O)=C[C@@H]1NC(=N)N", 10],
  ["CC(=O)N[C@H]1[C@H]([C@H](OC(=O)NCCCCCCN)[C@H](O)CO)OC(C(=O)O)=C[C@@H]1NC(=N)N", 20],
  ["CC(=O)N[C@H]1[C@H]([C@H](OC(=O)NCCCCCCNC(=O)CCCCCCCCCCCNC(=O)CCCC[C@@H]2SC[C@@H]3NC(=O)N[C@@H]32)[C@H](O)CO)OC(C(=O)O)=C[C@@H]1NC(=N)N", 30],
  ["CC(=O)N[C@H]1[C@H]([C@H](OC(=O)NCCOCCOCCN)[C@H](O)CO)OC(C(=O)O)=C[C@@H]1NC(=N)N", 20],
  ["CC(=O)N[C@H]1[C@H]([C@H](OC(=O)NCCCCCCNC(=O)OC(C)(C)C)[C@H](O)CO)OC(C(=O)O)=C[C@@H]1NC(=N)N", 20],
  ["CC(=O)N[C@H]1[C@H]([C@H](OC(=O)NCCCCCCNC(=O)NCCCCCCN)[C@H](O)CO)OC(C(=O)O)=C[C@@H]1NC(=N)N", 40],
  ["CC(=O)N[C@H]1[C@H]([C@H](OC(=O)NCCCCCCNC(=O)CCCCCNC(=O)CCCCCNC(=O)CCCCCNC(=O)CCCCCN)[C@H](O)CO)OC(C(=O)O)=C[C@@H]1NC(=N)N", 50],
  ["CC(=O)N[C@H]1[C@H]([C@H](OC(=O)NCCCCCCNC(=O)CNC(=O)CNC(=O)CNC(=O)CCCC[C@@H]2SC[C@@H]3NC(=O)N[C@@H]32)[C@H](O)CO)OC(C(=O)O)=C[C@@H]1NC(=N)N", 40],
  ["CC(=O)N[C@H]1[C@H]([C@H](OC(=O)NCCCCCCNC(=O)NCCCCCCNC(=O)OC(C)(C)C)[C@H](O)CO)OC(C(=O)O)=C[C@@H]1N", 10000],
  ["CC(=O)N[C@H]1[C@H]([C@H](OC(=O)NCCCCCCNC(=O)CCCCCNC(=O)CCCC[C@@H]2SC[C@@H]3NC(=O)N[C@@H]32)[C@H](O)CO)OC(C(=O)O)=C[C@@H]1NC(=N)N", 20]
]}

These entries and their values trace back to patent US20020055094A1.
